Test system: Plasmodium falciparum Dd2 (CQ,Q,PY,S)
ASSAY DETAILS: microbe, parasite or virus in culture
Assay type: cell-based
EXPERIMENTAL CONDITIONS: Dd2 and Dd2(AZ^R), 48 versus 96 h
PARAMETER MEASURED: Delayed death phenotype

CC[C@H]1OC(=O)[C@H](C)[C@@H](O[C@H]2C[C@@](C)(OC)[C@@H](O)[C@H](C)O2)[C@H](C)[C@@H](O[C@@H]2O[C@H](C)C[C@H](N(C)C(C)=O)[C@H]2O)[C@](C)(O)C[C@@H](C)CN(CCCNC(=O)Nc2ccc3ccccc3c2)[C@H](C)[C@@H](O)[C@]1(C)O :: No
CC[C@H]1OC(=O)[C@H](C)[C@@H](O)[C@H](C)[C@@H](O[C@@H]2O[C@H](C)C[C@H](N(C)C)[C@H]2OCCCNc2ccnc3ccccc23)[C@](C)(O)C[C@@H](C)CN[C@H](C)[C@@H](O)[C@]1(C)O :: No
CC[C@H]1OC(=O)[C@H](C)[C@@H](O[C@H]2C[C@@](C)(OC)[C@@H](O)[C@H](C)O2)[C@H](C)[C@@H](O[C@@H]2O[C@H](C)C[C@H](N(C)C)[C@H]2O)[C@](C)(O)C[C@@H](C)CN(CCCNc2ccnc3cc(Cl)ccc23)[C@H](C)[C@@H](O)[C@]1(C)O :: No
CC[C@H]1OC(=O)[C@H](C)[C@@H](O[C@H]2C[C@@](C)(OC)[C@@H](O)[C@H](C)O2)[C@H](C)[C@@H](O[C@@H]2O[C@H](C)C[C@H](N(C)C)[C@H]2O)[C@](C)(O)C[C@@H](C)CN(C)[C@H](C)[C@@H](O)[C@]1(C)O [Azithromycin, reference compound] :: Yes

###

ASSAY DETAILS: Pharmacokinetics in P. falciparum infected and uninfected humanized mice
EXPERIMENTAL CONDITIONS: NODscidβ2m^−/−, mouse, in vivo, po, 10 mg/kg, C max, uninfected (U) humanized mice, blood, oral 10 mg·kg^−1, mean (SD)
PARAMETER MEASURED: Cmax (ng/mL)

CCN(CC)CCCC(C)Nc1ccnc2cc(Cl)ccc12 (stereo not shown) [Chloroquine, reference compound] :: 72.3

###

ASSAY DETAILS: Pharmacokinetic studies in rats
Assay type: in vivo, Sprague–Dawley rats
EXPERIMENTAL CONDITIONS: male, Sprague-Dawley, whole blood, iv; Rat, blood, i.v. 2 mg·kg^−1, mean (SD)
PARAMETER MEASURED: clearance (mL/min/kg)

CC[C@H]1OC(=O)[C@H](C)[C@@H](O)[C@H](C)[C@@H](O[C@@H]2O[C@H](C)C[C@H](N(C)C)[C@H]2OCCCNc2ccnc3ccccc23)[C@](C)(O)C[C@@H](C)CN[C@H](C)[C@@H](O)[C@]1(C)O :: 4

###

IC50 by entry:
Tested on: Plasmodium falciparum Dd2 (CQ,Q,PY,S)
ASSAY DETAILS: microbe, parasite or virus in culture
Type: cell-based
EXPERIMENTAL CONDITIONS: Plasmodium falciparum, DD2, 72 h, read-out: IC50 Dd2 (CQ,Q,PY,S)
Experimental: The activity of the test compounds against P. falciparum in vitro was determined using the tritiated hypoxanthine incorporation assay of Desjardins et al. and additionally modified by Milhous and Chulay (Chulay, Haynes, & Diggs, [1983]; Milhous, Weatherly, Bowdre, & Desjardins, [1985]). Compounds were dissolved in DMSO and subsequently diluted in the culture medium (RPMI 1640) supplemented with 10% v/v human plasma. Serial 1:2 drug dilutions were prepared in triplicate in microtitre plates. […]
PARAMETER MEASURED: IC50 (nM)

CCN(CC)CCCC(C)Nc1ccnc2cc(Cl)ccc12 (stereo not shown) [Chloroquine, reference compound] :: 356
CC[C@H]1OC(=O)[C@H](C)[C@@H](O[C@H]2C[C@@](C)(OC)[C@@H](O)[C@H](C)O2)[C@H](C)[C@@H](O[C@@H]2O[C@H](C)C[C@H](N(C)C)[C@H]2O)[C@](C)(O)C[C@@H](C)CN(C)[C@H](C)[C@@H](O)[C@]1(C)O [Azithromycin, reference compound] :: 1590
CC[C@H]1OC(=O)[C@H](C)[C@@H](O[C@H]2C[C@@](C)(OC)[C@@H](O)[C@H](C)O2)[C@H](C)[C@@H](O[C@@H]2O[C@H](C)C[C@H](N(C)C)[C@H]2O)[C@](C)(O)C[C@@H](C)CN(CCCNc2ccnc3cc(Cl)ccc23)[C@H](C)[C@@H](O)[C@]1(C)O :: 25
CC[C@H]1OC(=O)[C@H](C)[C@@H](O)[C@H](C)[C@@H](O[C@@H]2O[C@H](C)C[C@H](N(C)C)[C@H]2OCCCNc2ccnc3ccccc23)[C@](C)(O)C[C@@H](C)CN[C@H](C)[C@@H](O)[C@]1(C)O :: 30
